- targetDesc: p67^phox (Homo sapiens, UniProt P19878)
- Sequence (P19878 1-212): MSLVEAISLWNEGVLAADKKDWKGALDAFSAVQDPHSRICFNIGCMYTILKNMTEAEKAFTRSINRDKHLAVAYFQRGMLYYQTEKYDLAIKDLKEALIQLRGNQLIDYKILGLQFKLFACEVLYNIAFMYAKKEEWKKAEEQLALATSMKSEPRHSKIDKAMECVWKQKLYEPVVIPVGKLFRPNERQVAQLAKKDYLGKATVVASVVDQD
- assayMethodText: microscale thermophoresis with labeled recombinant protein
- Format: binding
pKd: −log10 of the molar value.

molecule	pKd
O=[N+]([O-])c1cccc(C2Nc3ccc([N+](=O)[O-])cc3C3C=CCC32)c1 (stereo not shown) [compound 16, Phox-I2]	~6.82

Origin of measurements: paper PMC3292765
